Test system: vascular smooth muscle cells, MG-63 cell line, HepG2 cell line
Assay: Cellular vitamin K uptake in three cell types
Type: cell-based
Settings: all cells; mixture containing 1 μmol/L of each vitamin
OBSERVATION_TYPE: cellular uptake compared with other K vitamins

COMPOUND	TEST_TARGET	READING
CC(C)=CCC/C(C)=C/CC/C(C)=C/CC/C(C)=C/CC1=C(C)C(=O)c2ccccc2C1=O [MK-4]	vascular smooth muscle cells, MG-63 cell line, HepG2 cell line	much less
CC1=C(C/C=C(\C)CCC[C@H](C)CCC[C@H](C)CCCC(C)C)C(=O)c2ccccc2C1=O [K1, vitamin K1, reference compound]	vascular smooth muscle cells, MG-63 cell line, HepG2 cell line	much less
CC(C)=CCC/C(C)=C/CC/C(C)=C/CC/C(C)=C/CC/C(C)=C/CC/C(C)=C/CC/C(C)=C/CC/C(C)=C/CC1=C(C)C(=O)c2ccccc2C1=O [MK-8]	vascular smooth muscle cells, MG-63 cell line, HepG2 cell line	somewhat less
CC(C)=CCC/C(C)=C/CC/C(C)=C/CC/C(C)=C/CC/C(C)=C/CC/C(C)=C/CC/C(C)=C/CC/C(C)=C/CC/C(C)=C/CC1=C(C)C(=O)c2ccccc2C1=O [MK-9]	vascular smooth muscle cells, MG-63 cell line, HepG2 cell line	somewhat less

src = patent US20100048704A1
